I'd be grateful if you could share measured switch fluorescence ratio for these entries.
Test system: ATP;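 note: ATP exposure 15 min at 22 °C before imaging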
Test: switch fluorescence ratio, 500 uM ATP over buffer (Cy3 cluster intensity, sum of 5 cycles each) (fold (ratio)); higher = stronger signal-on switching upon ATP binding; sequences stand for … in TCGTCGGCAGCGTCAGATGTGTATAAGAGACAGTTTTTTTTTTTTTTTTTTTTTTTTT…TC
Conditions: aptamer strand: ATP DNA aptamer (quencher-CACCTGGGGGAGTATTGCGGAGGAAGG + anchor), 100 nM annealed; ATP concentration: 500 uM
Number only, no unit.

input: Look up switch fluorescence ratio: GGGTGTTACA
output: 1.05

input: Look up switch fluorescence ratio: TGGCAGCAGT
output: 1.09

input: Look up switch fluorescence ratio: TTTGATTTTC
output: 0.976

input: Look up switch fluorescence ratio: GTGACTTAGT
output: 1.03

input: Look up switch fluorescence ratio: CCATATAGTT
output: 0.986

input: Look up switch fluorescence ratio: TTATTTTGGG
output: 0.99

input: Look up switch fluorescence ratio: AAGTGTAAGG
output: 1.02

input: Look up switch fluorescence ratio: TTAGGACTAG
output: 0.97

input: Look up switch fluorescence ratio: AGTTTATGCA
output: 1

input: Look up switch fluorescence ratio: GGGGTGAAGC
output: 1.02

input: Look up switch fluorescence ratio: TTACGTAATA
output: 1.34

input: Look up switch fluorescence ratio: CATGGGTTGC
output: 0.99

input: Look up switch fluorescence ratio: CGTTGCTTGG
output: 1

input: Look up switch fluorescence ratio: GCATTATTCA
output: 1.04

input: Look up switch fluorescence ratio: ACGTCAAAAC
output: 2.91

input: Look up switch fluorescence ratio: CATCGTGGTT
output: 0.978

input: Look up switch fluorescence ratio: TCAATTTGTT
output: 0.992

input: Look up switch fluorescence ratio: CGCCCTTGGG
output: 0.992

input: Look up switch fluorescence ratio: GGGCATCTTT
output: 1

input: Look up switch fluorescence ratio: TAGCACAGTG
output: 1.15

input: Look up switch fluorescence ratio: TGAGGTCACG
output: 0.982

input: Look up switch fluorescence ratio: GACGGTTTTT
output: 1.01

input: Look up switch fluorescence ratio: GGGGACGAAA
output: 0.997

input: Look up switch fluorescence ratio: ATACCAGGTT
output: 1.18

input: Look up switch fluorescence ratio: TTTATTTACT
output: 1.01

input: Look up switch fluorescence ratio: TGTAAGGGAA
output: 1.01

input: Look up switch fluorescence ratio: CGGTCAGGGC
output: 1.02

input: Look up switch fluorescence ratio: TTTTAACCGA
output: 1.08

input: Look up switch fluorescence ratio: TTCGTTTCGA
output: 0.965

input: Look up switch fluorescence ratio: CTGGTTTAGT
output: 0.978

input: Look up switch fluorescence ratio: GGTTGGATTT
output: 0.978

input: Look up switch fluorescence ratio: CTCGCTGCGT
output: 1.02

input: Look up switch fluorescence ratio: GTGGGATAAA
output: 0.969

input: Look up switch fluorescence ratio: GTGTGGGGCC
output: 0.973

input: Look up switch fluorescence ratio: TTGGTAAAGT
output: 1.03

input: Look up switch fluorescence ratio: TAAAGCAGTA
output: 0.995

input: Look up switch fluorescence ratio: CTTCATGCTT
output: 1.02

input: Look up switch fluorescence ratio: GGGTAAATGC
output: 1.01

input: Look up switch fluorescence ratio: AGAATGTACG
output: 1.02

input: Look up switch fluorescence ratio: AAATACGTAT
output: 1.04

input: Look up switch fluorescence ratio: GAATGCAAAG
output: 1.03

input: Look up switch fluorescence ratio: TTTGCCGGGT
output: 0.998

input: Look up switch fluorescence ratio: TGCTTTAGCG
output: 1.02

input: Look up switch fluorescence ratio: TGGGATGCAT
output: 0.991

input: Look up switch fluorescence ratio: AGGAGTGTGG
output: 1.01

input: Look up switch fluorescence ratio: TCCGGGGCAG
output: 1.26

input: Look up switch fluorescence ratio: TTAGTTGAGA
output: 1

input: Look up switch fluorescence ratio: AAAGCTTTGG
output: 0.963

input: Look up switch fluorescence ratio: TGTTCCAATA
output: 1.03

input: Look up switch fluorescence ratio: ACCAGGAGAT
output: 1.05

input: Look up switch fluorescence ratio: CTCAGTAGTT
output: 1.02

input: Look up switch fluorescence ratio: AACGGTAGGT
output: 1.01

input: Look up switch fluorescence ratio: ATCGGGGGAA
output: 1.05

input: Look up switch fluorescence ratio: GTGGTCGGGT
output: 0.974
